# credit: the supplement of paper PMC8728848

TARGET: Gal(b1-3)Gal(b1-4)GlcNAc
TEST METHOD NOTES: glycan array binding signal (z-score within array); higher = stronger binding
CONDITION INFO: glycan notation: IUPAC condensed, linker removed
The full list was thinned out, with the strongest signals kept by preference.
Reported glycan array binding signal (z-score) values for a set of binders

Below are worked cases with known answers.
LBL-152 (Laetiporus bicolor), B0D650 (protein) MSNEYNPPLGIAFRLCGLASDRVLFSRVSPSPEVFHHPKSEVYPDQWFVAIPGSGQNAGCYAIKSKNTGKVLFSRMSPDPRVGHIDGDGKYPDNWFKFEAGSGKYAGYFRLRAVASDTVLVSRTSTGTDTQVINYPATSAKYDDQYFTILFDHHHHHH ... -0.158
VLRB.aGPA.23-GCN4-biotin (Petromyzon marinus) (protein) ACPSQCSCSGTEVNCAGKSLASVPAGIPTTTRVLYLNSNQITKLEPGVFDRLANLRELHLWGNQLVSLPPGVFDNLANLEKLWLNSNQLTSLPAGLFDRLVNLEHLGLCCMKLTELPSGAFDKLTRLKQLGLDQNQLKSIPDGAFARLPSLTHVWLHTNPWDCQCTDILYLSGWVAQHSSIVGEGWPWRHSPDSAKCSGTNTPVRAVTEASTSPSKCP ... 0.046

Then this binder:
Lookup: Specify glycan array binding signal (z-score) for CFEM-SCL (Saccharomyces cerevisiae), O13547 (protein) MRATTLLSSVVSLALLSKEVLATPPACLLACVAQVGKSSSTCDSLNQVTCYCEHENSAVKKCLDSICPNNDADAAYSAFKSSCSEQNASLGD and stop.
Found: 2.99
